# study system: Cytochrome P450 2C9 (Homo sapiens) (UniProt P11712)
# Sequence (P11712 whole entry, looked up): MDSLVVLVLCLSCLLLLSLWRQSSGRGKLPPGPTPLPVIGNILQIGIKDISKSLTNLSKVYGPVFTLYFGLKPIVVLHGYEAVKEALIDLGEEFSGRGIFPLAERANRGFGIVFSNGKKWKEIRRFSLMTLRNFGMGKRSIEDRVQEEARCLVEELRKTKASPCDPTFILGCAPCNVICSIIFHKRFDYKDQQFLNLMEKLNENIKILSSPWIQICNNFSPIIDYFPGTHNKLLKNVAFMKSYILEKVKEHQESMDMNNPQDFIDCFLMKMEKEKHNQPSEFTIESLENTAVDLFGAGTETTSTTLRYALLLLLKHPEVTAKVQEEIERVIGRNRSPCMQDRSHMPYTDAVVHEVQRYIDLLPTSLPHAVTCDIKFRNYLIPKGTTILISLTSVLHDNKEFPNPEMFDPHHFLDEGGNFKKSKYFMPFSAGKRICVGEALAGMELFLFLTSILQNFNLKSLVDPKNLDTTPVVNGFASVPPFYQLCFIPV
# assay method text: Cytochrome panel assay with activity outcomes
# condition details: recombinant CYP, pro-luciferin dealkylation, luminescence, p450-cyp2c9; series mostly up to 57.1 µM
The campaign covered roughly 16,000 compounds. About 4,000 (25%) were called active. Roughly 26% stayed inconclusive and do not appear here. Calls follow the shape of the dose curve; as a rule, active = well fitted curve in the direction sought with a large enough effect; inconclusive = small, poorly fitted or top-dose-only effect, or effect the other way; inactive = no such curve, though single readings can be large or run the other way. Not all results are given here.
Mark one answer only. Choices: active, inactive

{"compound": "COc1ccc(C(=O)n2c(SC)nc3cc4c(cc32)OCCO4)cc1", "study system": "Cytochrome P450 2C9 (Homo sapiens) (UniProt P11712)", "classification": "active"}
{"compound": "COc1ccc(-c2nc3cnc(N4CCN(C)CC4)nc3n(Cc3ccc(F)cc3)c2=O)cc1", "study system": "Cytochrome P450 2C9 (Homo sapiens) (UniProt P11712)", "classification": "inactive"}
{"compound": "O=c1c(-c2ccc(F)cc2)nc2cncnc2n1C1CC1", "study system": "Cytochrome P450 2C9 (Homo sapiens) (UniProt P11712)", "classification": "inactive"}

// outcome(item) with item = COc1cccc(Cn2c(=O)c(-c3cccs3)nc3cnc(N4CCNCC4)nc32)c1
active

Look up the recorded call for CCC#CCOCC(=O)Nc1ccccc1 in this test.
inactive

Recorded call for O=c1c(-c2ccccc2)nc2cnc(N3CCOCC3)nc2n1C1CC1 ?
active

Kindly provide the recorded test outcome for the following compound: CN(C/C=C\c1ccccc1)Cc1cccc2ccccc12
inactive

Check the results log: what was the call for COc1cccc(Cn2c(=O)c(-c3ccc(Cl)cc3)nc3cnc(N4CCN(C)CC4)nc32)c1 ?
inactive

---

# study system: Cytochrome P450 2C9 (Homo sapiens) (UniProt P11712)
# assay method text: Cytochrome panel assay with activity outcomes
# condition details: recombinant CYP, pro-luciferin dealkylation, luminescence, p450-cyp2c9; series mostly up to 57.1 µM
# Procedure: The P450 gene superfamily is involved in the metabolism and clearance of xenobiotics. This assay used various human CYP P450 isozymes to measure the dealkylation of various pro-luciferin substrates to luciferin. The luciferin is then measured by luminescence after the addition of a luciferase detection reagent. […] Inhibitors and some substrates limit the production of luciferin, and decrease measured luminescence. […] 8, Detection, 1 sec, ViewLux luminescent read […]
Hit rate of the full screen: of about 16,000 compounds, about 4,000 (25%) were called active. Roughly 26% stayed inconclusive and do not appear here. The call rests on the fitted dose curve; in most records, active means well fitted curve in the direction sought with a large enough effect; inconclusive means small, poorly fitted or top-dose-only effect, or effect the other way; inactive means no such curve, though single readings can be large or run the other way. The list is a sample of the results.
Choose the fitting class; nothing outside label 1 (active), label 0 (inactive) is accepted.

{"compound": "CCN(CC)c1ccc(NC(=O)CSc2nnc3nc(C)cc(C)n23)cc1", "classification": "label 0"}
{"compound": "O=C(CCNC(=O)c1ccccc1)OCN1C(=O)c2ccccc2C1=O", "classification": "label 0"}
{"compound": "Cc1cccc(N(CC(=O)NC2CCCC2)C(=O)c2cc3cc4cccc(C)c4nc3s2)c1C", "classification": "label 1"}
{"compound": "CCC(C)C(NC(=O)OCc1ccccc1)C(=O)OCN1C(=O)c2ccccc2C1=O (stereo unspecified)", "classification": "label 1"}
{"compound": "C(/C=C/c1ccco1)=N/N1CCN(c2ccccc2)CC1", "classification": "label 0"}

Given Cn1cc(C(=O)OCC2CCN(CCNS(C)(=O)=O)CC2)c2ccccc21 , state the outcome it received in this test.
label 0

Record request — test call for COc1cc2nc(SCc3ccc(Cl)cc3Cl)n(Cc3cccs3)c(=N)c2cc1OC
label 1

Dear colleague, could you share the recorded outcome for O=c1oc2ccccc2cc1-c1csc(NN=C2CCCCC2)n1 when you have a moment?
label 1

Short answer needed: outcome of this test for CCN(CC)CCOC(=O)[C@@H](Cc1cccc2ccccc12)C[C@@H]1CCCO1 ?
label 0

---

# study system: Cytochrome P450 2C9 (Homo sapiens) (UniProt P11712)
# assay method text: Cytochrome panel assay with activity outcomes
# condition details: recombinant CYP, pro-luciferin dealkylation, luminescence, p450-cyp2c9; series mostly up to 57.1 µM
The campaign covered roughly 16,000 compounds. About 4,000 (25%) were called active. Roughly 26% stayed inconclusive and do not appear here. The call rests on the fitted dose curve; in most records, active means well fitted curve in the direction sought with a large enough effect; inconclusive means small, poorly fitted or top-dose-only effect, or effect the other way; inactive means no such curve, though single readings can be large or run the other way. Only a sample is shown.
Please reply with one of these outcomes: Yes (active), No (inactive)

{"compound": "COC(=O)C1=C(C)NC2=C(C(=O)CCC2)C1c1cn(Cc2ccc(Cl)cc2Cl)nc1-c1ccccc1 (centres undefined)", "classification": "Yes"}

How was COc1ccccc1NC(=S)NNC(=O)c1c(Cl)c(C)nn1C classified in this test?
Yes

Query: recorded result category for COc1cccc(Cn2c(=O)c(-c3ccccc3)nc3cnc(N4CCNCC4)nc32)c1 in this test
Yes

Per the assay record, what outcome was assigned to Cc1nc2cnc(N3CCN(C)CC3)nc2n(C)c1=O ?
No

---

# study system: Cytochrome P450 2C9 (Homo sapiens)
# assay method text: Cytochrome panel assay with activity outcomes
# condition details: recombinant CYP, pro-luciferin dealkylation, luminescence, p450-cyp2c9; series mostly up to 57.1 µM
The campaign covered roughly 16,000 compounds. About 4,000 (25%) were called active. Another 26% or so got no clear call; they are omitted. Calls follow the shape of the dose curve; as a rule, active = well fitted curve in the direction sought with a large enough effect; inconclusive = small, poorly fitted or top-dose-only effect, or effect the other way; inactive = no such curve, though single readings can be large or run the other way. These entries were drawn from the full list.
# valid calls are YES (active), NO (inactive); nothing else

Assay result, entry CCNc1ncc2nc(-c3cc(F)cc(F)c3)c(=O)n(CCC#N)c2n1 — outcome?
NO

Call for entry CCCN(CCC)S(=O)(=O)c1ccc(C(=O)O)cc1 :
NO

Please let me know the test result on file for COc1ccc(/C=C/C(=O)NCc2cn(C)nc2C)cc1COc1ccc(Br)cc1 .
YES

// return assay outcome for NNC(=O)CNC(c1ccccc1)c1cc(Br)ccc1NC(=O)c1ccccc1Br (stereo not given)
YES

Hello, I am checking results. What call was entered for O=C1c2c(O)cc(O)cc2O[C@@H](c2ccc(O)c(O)c2)[C@H]1O ?
NO

// return assay outcome for CCn1ncc(/C=C/C(=O)NCc2cn(C)nc2C)c1C
NO

Per the assay record, what outcome was assigned to COc1ccc([C@@H]2CC(=O)c3c(O)cc(O[C@H]4O[C@@H](CO[C@H]5O[C@@H](C)[C@@H](O)[C@@H](O)[C@@H]5O)[C@@H](O)[C@@H](O)[C@@H]4O)cc3O2)cc1O ?
NO

I would be grateful if you could indicate the recorded call for COc1ccc(C(=O)NN)cc1COc1ccc(Br)cc1 .
YES

Please let me know the test result on file for COC(=O)CCC(=O)NNC(=O)c1ccc(Br)cc1 .
NO

GET /call?item= CCN(CC)S(=O)(=O)c1ccc(C(=O)Nc2ncn(Cc3ccccc3)n2)cc1 returns the recorded outcome of this test.
YES

---

# study system: Cytochrome P450 2C9 (Homo sapiens)
# assay method text: Cytochrome panel assay with activity outcomes
# condition details: recombinant CYP, pro-luciferin dealkylation, luminescence, p450-cyp2c9; series mostly up to 57.1 µM
Among all 16,000 compounds or so, about 4,000 (25%) were called active. Another 26% or so got no clear call; they are omitted. Only a sample is shown.
readout name: AC50

// known answers, use as guide
{"compound": "CCCc1cc(=O)[nH]c(=S)[nH]1", "AC50": "inactive"}
{"compound": "CC(=O)N1CCC2(CCCN(Cc3ccccc3)C2)CC1", "AC50": "inactive"}
{"compound": "Cc1cc(NC(=O)C2=C(O)c3ccccc3S(=O)(=O)N2C)no1", "AC50": "inactive"}
{"compound": "N[C@H](C(=O)O)[C@H](O)C(=O)O", "AC50": "inactive"}
{"compound": "CN1CCN(c2ncc3nc(-c4cccc(C#N)c4)c(=O)n(CCC#N)c3n2)CC1", "AC50": "inactive"}
{"compound": "COCCn1c(=O)c(-c2cc(F)cc(F)c2)nc2cnc(N3CCOCC3)nc21", "AC50": "inactive"}
{"compound": "CSc1cccc(NC(=O)Cn2cccc2)c1", "AC50": "20 µM (active)"}
{"compound": "Cc1cccc(NC(=O)Cn2cccc2)c1", "AC50": "inactive"}

Give measured AC50 for every item shown.
1. CCCC[C@@H]1C[C@H]1C(NC(=O)Cc1ccccc1)c1ccc(-c2ccccc2)cc1 (some centres not stated)
2. COCCn1c(=O)c(-c2cc(F)cc(F)c2)nc2cnc(N3CCNCC3)nc21
3. CN1C(C(=O)Nc2ccccn2)=C(O)c2ccccc2S1(=O)=O
4. COCCn1c(=O)c(C)nc2cnc(N3CCNCC3)nc21

["inactive", "1.26 µM (active)", "3.98 µM (active)", "inactive"]

---

# study system: Cytochrome P450 2C9 (Homo sapiens) (UniProt P11712)
# assay method text: Cytochrome panel assay with activity outcomes
# condition details: recombinant CYP, pro-luciferin dealkylation, luminescence, p450-cyp2c9; series mostly up to 57.1 µM
Screen size: about 16,000 compounds; about 4,000 (25%) were called active. Another 26% or so got no clear call; they are omitted. Calls come from the whole dose curve; as a rule, active = well fitted curve in the direction sought with a large enough effect; inconclusive = small, poorly fitted or top-dose-only effect, or effect the other way; inactive = no such curve, though single readings can be large or run the other way. Not all results are given here.
Reply using exactly one outcome from 1 (yes) (active), 0 (no) (inactive)

Examples with answers:
{"compound": "COCC(=O)N1CCC2(CC1)CN(Cc1ccccc1OC)C2", "classification": "0 (no)"}
{"compound": "COC(=O)c1ccc(C2C(Oc3ccccc3)C(=O)N2CCc2ccc(OC)c(OC)c2)cc1 (stereo not given)", "classification": "0 (no)"}
{"compound": "COc1ccc(CCN2CC34C=CC(O3)C(C(=O)NCc3ccccc3)C4C2=O)cc1OC (stereo not given)", "classification": "0 (no)"}
{"compound": "Cc1ccccc1OC1C(=O)N(Cc2ccc3c(c2)OCO3)C1c1sccc1C (stereo not given)", "classification": "1 (yes)"}

Kindly consider the entry below.
Please share the test call associated with O=C(O)CC[C@@H](NC(=O)c1ccccc1C(=O)O)C(=O)O .
0 (no)
